Reference for the values: paper PMC9851200

Reported pKd values are given for each entry in this list.
# tested_target: TGFBR1 (Homo sapiens, UniProt P36897)
# Sequence (P36897 34-503): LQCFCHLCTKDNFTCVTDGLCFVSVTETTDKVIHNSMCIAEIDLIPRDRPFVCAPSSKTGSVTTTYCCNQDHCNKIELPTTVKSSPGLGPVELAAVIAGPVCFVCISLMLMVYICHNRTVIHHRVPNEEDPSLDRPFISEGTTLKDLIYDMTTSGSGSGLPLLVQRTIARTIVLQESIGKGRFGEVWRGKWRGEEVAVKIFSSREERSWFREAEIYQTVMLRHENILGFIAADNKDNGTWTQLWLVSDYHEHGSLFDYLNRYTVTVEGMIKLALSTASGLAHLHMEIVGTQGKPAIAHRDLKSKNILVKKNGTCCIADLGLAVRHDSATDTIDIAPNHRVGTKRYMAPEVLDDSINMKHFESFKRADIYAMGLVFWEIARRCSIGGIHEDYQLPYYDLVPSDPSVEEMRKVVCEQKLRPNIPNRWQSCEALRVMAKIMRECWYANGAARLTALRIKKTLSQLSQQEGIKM
# measurement_notes: TGFBR1 binding KD (Table S3)
pKd: −log10 of the molar value.
measure: pKd

smiles_entry | measure | numeric_result
Cc1cccc(-c2nc(Nc3ccc4ncsc4c3)c3ccccc3n2)n1 | pKd | 5.30
Cc1cccc(-c2nc(Nc3ccncc3)c3ccccc3n2)n1 | pKd | 8.02

###

# System: SH-SY5Y cells
# measurement_notes: AK (adenylate kinase) release ToxiLight cytotoxicity assay
# condition_description: PKIS2 primary screen
measure: AK

compound | numeric_result
O=c1[nH]cc(-c2ccc(O)cc2)c2sc(-c3ccncc3)cc12 [UNC10225166A] | 95.26
O=C(NCc1cccs1)c1cc(C(=O)c2c(Cl)cccc2Cl)c[nH]1 [UNC10225502A] | 136.34
O=c1[nH]cc(-c2ccc(N3CCOCC3)cc2)c2sc(-c3cn[nH]c3)cc12 [UNC10225158A] | 90.80
Cc1c(Cn2c(C)nn3c(=O)cc(N4CCOC(C)C4)nc23)cccc1C(F)(F)F (stereo not shown) [UNC10225005A] | 90.28

###

Reported DQ Spot values for the following compounds.
# System: SH-SY5Y cells
# condition_description: PKIS2 primary screening, DQ Red BSA spot count

compound | DQ Spot
Cc1ccccc1-c1cc(-c2c[nH]nc2-c2ccccn2)ccn1 [UNC10225243A] | 82.05
CN1C(=O)C(Nc2ccccc2)=C(c2ccccc2)C1=O [UNC10225242A] | 99.91
Cl.Oc1ccc(-c2nc(-c3ccccc3)[nH]c2-c2ccncc2)cc1 [UNC10225482A] | 108.10
Cl.Cl.NCC(NC(=O)c1cc(-c2ccccc2)c(-c2ccnc3[nH]ccc23)s1)c1ccccc1 (centres unmarked) [UNC10225466A] | 96.16
CNC(=O)c1ccccc1Nc1nc(Nc2cccc(CS(C)(=O)=O)c2)ncc1C | 118.45
COc1ccc(CNC(=O)NC2CCN(c3ccnc(Nc4ccc(F)cc4)n3)CC2)cc1 | 97.11
NC(=O)c1cccc(Nc2nccc(Nc3ccc(Oc4c(Cl)cccc4Cl)c(Cl)c3)n2)c1 | 79.24
COc1cc(Nc2nccc(N3CCC(NC(=O)Nc4cc(C)ccc4C)C3)n2)cc(OC)c1OC (centres unmarked) | 96.86

###

# System: SH-SY5Y cells
# measurement_notes: Nuclear count from microscopy images (cellular growth and toxicity)
# condition_description: PKIS2 primary screening
Each entry below carries its recorded Nuclear Count.

compound | Nuclear Count
FC(F)(F)c1cc(Br)cc(Nc2nccc(-c3cnn4ncccc34)n2)c1 [UNC10225191A] | 72.92
Nc1n[nH]c2cc(-c3ccccn3)ccc12 | 100.38
Cc1occc1-c1ncc(OC[C@@H](N)Cc2c[nH]c3ccccc23)cc1-c1ccc2[nH]nc(C)c2c1.O=C(O)C(F)(F)F [UNC10243880A] | 69.84
COc1cc(Nc2nccc(N3CCC(NC(=O)Nc4ccc5c(c4)OCO5)C3)n2)cc(OC)c1OC (centres unmarked) | 95.41
Cc1ccc(CC(=O)N2CCc3cc(-c4cn(C)c5ncnc(N)c45)ccc32)cc1 [UNC10225490A] | 101.02
COc1cc2nccc(Nc3ccc(NC(=O)c4ccc(C)cc4)c(O)c3)c2cc1OC.Cl [UNC10225013A] | 63.58
O=C(O)C(F)(F)F.O=c1[nH]ccc2nc(N[C@@H]3CCNC3)nc(Nc3ccc4c(c3)S(=O)(=O)CC4)c12 [UNC10225451A] | 98.38
CCn1c(-c2cccnc2O)nc2cnccc21 [UNC10225114A] | 103.96

###

# Test system: endogenous TFE3
# measurement_notes: TFE3 nuclear translocation, immunocytochemistry high-content imaging
# Format: cell-based
# condition_description: PKIS2 primary screening
Everything with TFE3 % lower than 10% is NOT MET; everything else, including exactly 10%, is MET.

compound | discrete_label
CCS(=O)(=O)c1ccc(OC)c(Nc2ncc(-c3ccc(F)cc3)o2)c1 | NOT MET
COC(=O)c1cccc(NC(=O)NC2CCN(c3ccnc(Nc4ccc(F)cc4)n3)C2)c1 (centres unmarked) | MET
Cc1ccc(C)c(NC(=O)Nc2ccc(C)c(-c3ccc(C(=O)Nc4ccncc4)cc3)c2)c1 [UNC10225228A] | MET
CC(C(=O)NC1CCN(c2ccnc(Nc3ccc(F)cc3)n2)C1)c1ccc(Cl)cc1 (centres unmarked) | MET
Cc1ccc(NC(=O)c2ccnc(N3CCN(C)CC3)c2)cc1-c1ccc(C(=O)NCC2CC2)cc1 [UNC10225009A] | MET
CC(C)c1nc(-c2cccc(NS(=O)(=O)c3ccccc3)c2)c(-c2ccnc(Nc3ccc4c(c3)CN(C)CC4)n2)s1 [UNC10225068A] | MET
COc1cccc2c(-c3ccncc3)c(-c3ccc(F)cc3)nn12 [UNC10225305A] | NOT MET
O=C(c1ccc(-c2cc(-c3c[nH]nc3-c3ccccn3)ccn2)cc1)N1CCOCC1 [UNC10225421A] | MET
O=C(Nc1n[nH]c2cc(-c3cccc(F)c3F)ccc12)C1CC1 | MET
NCCC(NC(=O)c1cc(Br)c(-c2ccnc3[nH]ccc23)s1)c1ccccc1.O=C(O)C(F)(F)F.O=C(O)C(F)(F)F (centres unmarked) [UNC10225503A] | MET
C[C@@H](Oc1cc(-n2cnc3ccc(-c4ccncc4)cc32)sc1C(N)=O)c1ccccc1Cl [UNC10225348A] | MET
Cl.Oc1cccc(Nc2ccnc3cc(-c4ccncc4)ccc23)c1 [UNC10225467A] | MET
O=C(NCCNc1ccnc(Nc2ccc(F)cc2)n1)Nc1ccccc1F | NOT MET
Nc1nccc(-c2ccc3c(N)n[nH]c3c2)n1 | MET
Cl.Cl.NCC(NCc1ccc(-c2ccnc3[nH]ccc23)s1)c1ccccc1 (centres unmarked) [UNC10225471A] | MET

###

# System: SH-SY5Y cells
# condition_description: human, SH-SY5Y cells, 24 h, 1 µM
In this section we review reported Nuclear Count values for a set of molecules.

molecule | tested_target | Nuclear Count
O=C(Nc1n[nH]c2nc(-c3ccccc3)ccc12)C1CC1 [SB-708999] | SH-SY5Y cells | 127.54
Fc1ccc(-c2ncn(C3CCNCC3)c2-c2ccnc(Oc3ccc(-c4ccccc4)cc3)n2)cc1 [UNC10225377A] | SH-SY5Y cells | 106.99
COc1ccc(C2=C(Nc3cccc(O)c3)C(=O)NC2=O)cc1 [UNC10225299A] | SH-SY5Y cells | 77.10

###

# Tested on: SH-SY5Y cells
# condition_description: human, SH-SY5Y cells, 24 h, 1 µM
Rule for this label: Condition met means AK is less than 100; Condition not met means AK is at least 100.

compound | tested_target | discrete_label
COc1ccccc1-c1ccc2c(NC(=O)C3CC3)n[nH]c2n1 | SH-SY5Y cells | Condition met
O=C(Nc1n[nH]c2cc(-c3cccc(F)c3)ccc12)C1CC1 | SH-SY5Y cells | Condition met
CSc1ccc(NC2=C(c3ccccc3Cl)C(=O)NC2=O)cc1 [UNC10225346A] | SH-SY5Y cells | Condition not met
CSc1ccc(NC2=C(c3ccc(Cl)cc3)C(=O)NC2=O)cc1 [UNC10225216A] | SH-SY5Y cells | Condition not met

###

# Tested on: SH-SY5Y cells
# condition_description: PKIS2 primary screening, DQ Red BSA spot count
DQ Spot reference

molecule | DQ Spot
COc1ccc(Nc2ncc(C#N)c(Nc3ccccc3C(N)=O)n2)cc1N1CCN(C)CC1 | 120.07
Cc1cccc(-c2nc(Nc3cccc(C(N)=O)c3)c3ccccc3n2)n1 | 107.41
O=C(Nc1n[nH]c2nc(-c3ccco3)c(Br)cc12)c1ccc(CN2CCCC2)cc1 | 91.08
FC(F)(F)c1ccc(-c2cc(-c3c[nH]nc3-c3ccccn3)ccn2)cc1 [UNC10225241A] | 108.48
COc1cc2nccc(Nc3ccc(NC(=O)c4ccc(C)cc4)c(O)c3)c2cc1OC.Cl [UNC10225013A] | 65.59
Cl.c1ccc(-c2n[nH]cc2-c2ccnc(-c3ccc(CN4CCOCC4)cc3)c2)nc1 [UNC10225251A] | 92.60
Cc1ccc(C(=O)Nc2ccc(Nc3ccnc4cc(-c5nccs5)ccc34)cc2O)cc1.Cl [UNC10225432A] | 36.88
Cc1ccc(S(=O)(=O)Nc2ccc(Nc3nccc(Nc4cccc5[nH]ncc45)n3)cc2)cc1 | 120.36

###

As shown below, each of these compounds has a reported AK value.
# System: SH-SY5Y cells
# measurement_notes: AK (adenylate kinase) release ToxiLight cytotoxicity assay
# condition_description: PKIS2 primary screening
measure: AK

compound | numeric_result
Cc1n[nH]c2cc(Nc3ccnc(Nc4cccc(CN5CCOCC5)c4)n3)ccc12 [GW682569] | 83.50
Cc1cccc(-c2cc(Nc3ccncc3)c3ccccc3n2)n1 [GSK223675] | 117.83
Cc1occc1-c1nc(N)c(OC[C@@H](N)Cc2c[nH]c3ccccc23)cc1-c1cc2c(C)n[nH]c2cn1 [UNC10225217A] | 91.49
CN1CCN(Cc2ccc(NC(=O)Nc3ccc(N(C)c4ccnc(Nc5ccc(CS(C)(=O)=O)cc5)n4)cc3)cc2)CC1 [GW827654] | 74.74
